assayMethodText: Biniding affinity to bacterial Tyrosinase assessed as inhibition constant
Parameters: species or system Bacteria
Listed next: entries and their corresponding Ki.
propertyName: Ki (µM)

1. O=c1ccc(CO)cn1O 4.1
2. NC(=S)N/N=C\c1ccc(=O)n(O)c1 2
3. N[C@@H](Cc1ccc(=O)n(O)c1)C(=O)O 39

---

assayMethodText: Inhibition of Bacterial Tyrosinase
Parameters: species or system Bacteria
pIC50: −log10 of the molar value.
propertyName: pIC50

1) NC(=S)N/N=C/c1cc(=O)c(O)co1 5.80

---

targetUnderTest: Tyrosinase (Homo sapiens)
Sequence (P14679 whole entry): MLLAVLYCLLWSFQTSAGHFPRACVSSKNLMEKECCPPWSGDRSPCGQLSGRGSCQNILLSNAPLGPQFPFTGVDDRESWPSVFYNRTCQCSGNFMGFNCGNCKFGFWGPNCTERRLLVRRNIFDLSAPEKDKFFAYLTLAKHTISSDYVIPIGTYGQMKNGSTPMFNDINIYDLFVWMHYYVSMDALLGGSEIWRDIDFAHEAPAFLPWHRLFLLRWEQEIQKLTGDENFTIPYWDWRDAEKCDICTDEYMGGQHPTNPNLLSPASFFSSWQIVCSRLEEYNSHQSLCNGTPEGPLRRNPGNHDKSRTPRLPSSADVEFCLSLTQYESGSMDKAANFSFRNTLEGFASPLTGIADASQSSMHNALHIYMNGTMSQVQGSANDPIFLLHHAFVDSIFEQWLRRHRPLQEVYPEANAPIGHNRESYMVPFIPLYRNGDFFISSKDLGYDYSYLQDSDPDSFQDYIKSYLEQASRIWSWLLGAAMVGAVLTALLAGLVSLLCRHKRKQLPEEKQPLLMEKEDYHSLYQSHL
propertyName: IC50

1) CC(C)c1ccccc(=O)c1O > 1 mM

---

targetUnderTest: Mushroom tyrosinase (Agaricus bisporus, UniProt O42713+Q00024+C7FF04+C7FF05)
assayMethodText: Inhibition of mushroom Tyrosinase by using L-DOPA as substrate by spectrophotometric assay
Format: protein assay
Values of IC50 strictly less than 1 µM map to Criterion met, and values of at least 1 µM map to Criterion not met.

1. O=c1cc(CSc2nnc(-c3ccccc3)n2NCc2ccc(O)cc2O)occ1O Criterion not met
2. O=c1cc(CSc2nnc(-c3ccc(F)cc3)o2)occ1O Criterion not met
3. O=c1cc(CSc2nc3ccccc3c(=O)n2CCc2ccccn2)occ1O Criterion met
4. O=c1cc(CSc2nc3ccccc3s2)occ1O Criterion not met
5. CN(C)c1ccc(-c2nnc(SCc3cc(=O)c(O)co3)nc2-c2ccc(N(C)C)cc2)cc1 Criterion met
6. COc1ccccc1/C=C/C=N/Nc1nnc(SCc2cc(=O)c(O)co2)n1N Criterion not met

---

assayMethodText: Binding affinity to Mushroom Tyrosinase assessed as inhibition constant
propertyName: Ki

compound	reportedValue
NCCn1ccc(=O)c(O)c1	14 µM
CCn1ccc(=O)c(O)c1	4 µM
N[C@@H](Cn1ccc(=O)c(O)c1)C(=O)O [L-MIMOSINE]	8 µM

---

targetUnderTest: Mushroom tyrosinase (Agaricus bisporus, UniProt O42713+Q00024+C7FF04+C7FF05)
assayMethodText: Inhibition of mushroom Tyrosinase using L-DOPA as substrate assessed as inhibition constant by Michaelis-Menten analysis
Type: protein assay
Values of IC50 strictly less than 10 µM map to true (1), and values of at least 10 µM map to false (0).

1) On1ccccc1=S true (1)
2) NC(=S)N/N=C\c1ccc(=O)n(O)c1 true (1)
3) Nc1cc2ccc(O)cc2oc1=O false (0)
4) O=C1/C(=C/c2ccc(=O)n(O)c2)Oc2cc(O)ccc21 true (1)

---

targetUnderTest: Tyrosinase (Homo sapiens, UniProt P14679)
Sequence (P14679 whole entry): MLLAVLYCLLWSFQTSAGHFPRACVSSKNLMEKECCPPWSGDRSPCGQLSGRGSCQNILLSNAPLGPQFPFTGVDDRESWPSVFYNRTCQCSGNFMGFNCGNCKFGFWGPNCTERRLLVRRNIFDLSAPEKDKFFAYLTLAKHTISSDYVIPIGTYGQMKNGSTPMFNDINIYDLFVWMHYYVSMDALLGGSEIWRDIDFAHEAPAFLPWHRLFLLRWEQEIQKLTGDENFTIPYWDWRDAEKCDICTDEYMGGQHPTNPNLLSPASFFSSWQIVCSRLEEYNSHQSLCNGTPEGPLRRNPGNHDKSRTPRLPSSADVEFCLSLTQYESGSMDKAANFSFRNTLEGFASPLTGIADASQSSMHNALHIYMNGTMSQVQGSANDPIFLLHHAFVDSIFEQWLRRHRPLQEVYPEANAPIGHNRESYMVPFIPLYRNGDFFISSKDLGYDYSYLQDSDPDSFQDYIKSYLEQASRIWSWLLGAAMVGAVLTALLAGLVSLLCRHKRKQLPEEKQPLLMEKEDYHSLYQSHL
assayMethodText: Binding affinity to human Tyrosinase using L-DOPA as substrate assessed as inhibition constant by Michaelis-Menten analysis
pKi: −log10 of the molar value.
propertyName: pKi

1. NC(=S)N/N=C\c1ccc(=O)n(O)c1 4.33

---

Listed next: entries and their corresponding Ki.
targetUnderTest: Mushroom tyrosinase (Agaricus bisporus, UniProt O42713+Q00024+C7FF04+C7FF05)
assayMethodText: Binding affinity to mushroom Tyrosinase using L-DOPA as substrate assessed as inhibition constant by Michaelis-Menten analysis
Type: protein assay
propertyName: Ki (nM)

1. Oc1cccnc1O 22000
2. O=C1/C(=C/c2ccc(=O)n(O)c2)Oc2cccc(O)c21 1020
3. O=C1/C(=C/c2ccc(=O)n(O)c2)Oc2cc(O)cc(O)c21 1200
4. CC(C)c1ccc(O)c(=O)cc1 70
5. CC(C)c1ccccc(=O)c1O 9500
6. CC(C)c1cccc(=O)c(O)c1 90
7. O=c1cccccc1O 8000
8. NC(=S)N/N=C\c1ccc(=O)n(O)c1 560
9. O=C1/C(=C/c2ccc(=O)n(O)c2)Oc2cc(O)ccc21 350

---

assayMethodText: Binding affinity to bacterial Tyrosinase assessed as inhibition constant
Design: species or system Bacteria
propertyName: Ki (µM)

1) N[C@@H](Cn1ccc(=O)c(O)c1)C(=O)O 54
